# credit: patent US20180066015A1

Biological target: Hepatocyte Growth Factor Activator (HGFA) serine protease domain, N-terminal His-tag, recombinant (Homo sapiens (Human)) (UniProt Q04756)
Experiment: fluorogenic inhibition assay
Non-standard residues stand in square brackets, D forms with d. Primed or numbered codes have the meaning given here. *: point of attachment. kbt = C-terminal ketobenzothiazole, c1ccc2sc(*)nc2c1; His(π-Bom) = N[C@@H](Cc1cncn1COCc1ccccc1)C(=O)O; kt = C-terminal ketothiazole, c1csc(*)n1; Fmoc = O=C(OCC1c2ccccc2-c2ccccc21)*; kt″ = ketothiazole, c1csc(*)n1
attribute-measured: pKi
Scale for pKi: -log10 of concentration given in mol/L; no unit attached.

Look over these answered cases.
binder="Ac-KQLR-{kt″} (SMILES CC(=O)N[C@@H](CCCCN)C(=O)N[C@@H](CCC(N)=O)C(=O)N[C@@H](CC(C)C)C(=O)N[C@@H](CCCNC(=N)N)C(=O)c1nccs1) [Ac-KQLR(SEQ ID NO: 1)-kt]" observed_value=7.15
binder="Fmoc-Ala-Arg-kbt [Fmoc-AR-kbt]" observed_value=5.10
binder="H-[His(π-Bom)][dW]LR-kbt (SMILES CC(C)C[C@H](NC(=O)[C@@H](Cc1c[nH]c2ccccc12)NC(=O)[C@@H](N)Cc1cncn1COCc1ccccc1)C(=O)N[C@@H](CCCNC(=N)N)C(=O)c1nc2ccccc2s1) [H-His(Bom)-dWLR-kbt]" observed_value=5.64
binder="H-[His(π-Bom)]WLR-kbt (SMILES CC(C)C[C@H](NC(=O)[C@H](Cc1c[nH]c2ccccc12)NC(=O)[C@@H](N)Cc1cncn1COCc1ccccc1)C(=O)N[C@@H](CCCNC(=N)N)C(=O)c1nc2ccccc2s1) [H-His(Bom)-WLR-kbt]" observed_value=5.43
binder="Fmoc-Trp-Arg-kbt [Fmoc-WR-kbt]" observed_value=5.50
binder="Ac-SKLR-{kbt‑6‑CO-Val-NH2} [Ac-SKLR(SEQ ID NO: 10)-Kbt-Val-NH2]" observed_value=7.89

Qu. Which measured pKi value corresponds to Ac-SKLR-kt (SMILES CC(=O)N[C@@H](CO)C(=O)N[C@@H](CCCCN)C(=O)N[C@@H](CC(C)C)C(=O)N[C@@H](CCCNC(=N)N)C(=O)c1nccs1) [Ac-SKLR(SEQ ID NO: 10)-kt] ?
Ans. 7.09

Qu. Which measured pKi value corresponds to Fmoc-Ile-Arg-kbt [Fmoc-IR-kbt] ?
Ans. 5.19

Qu. Which measured pKi value corresponds to H-Leu-Leu-Arg-{kbt-Val-NH2} [H-LLR-kbt-Val-NH2] ?
Ans. 7.09
